The values you see were collected from patent US20160024535A1.

method: Electrochemical treatment of medium, removal rate of phenolic and furanic compounds
Type: physicochemical
condition_notes: 2nd treatment; 0.5 g/L added to medium; wt %
quantity_measured: Removal rate (%)

1) O=C(O)/C=C/c1ccc(O)cc1 = 78.0
2) O=Cc1ccco1 = 100
3) COc1cc(C=O)ccc1O = 82.2
4) COc1cc(C=O)cc(OC)c1O = 94.7
5) COc1cc(/C=C/C(=O)O)ccc1O = 76.9
6) O=Cc1ccc(CO)o1 [HMF, 5-hydroxymethylfurfural] = 100

---

method: Electrochemical treatment of medium, removal rate of phenolic and furanic compounds
Assay type: physicochemical
condition_notes: 2nd treatment; 0.5 g/L added to medium
Post-treatment concentration values for the compounds below.
quantity_measured: Post-treatment concentration (g/L)

1. COc1cc(/C=C/C(=O)O)ccc1O [Ferulic acid, ferulic acid] = 0.1155
2. O=Cc1ccco1 [Furfural, furfural] = 0
3. O=C(O)/C=C/c1ccc(O)cc1 [p-Coumaric acid, p-coumaric acid] = 0.11
4. COc1cc(C=O)cc(OC)c1O [Syringaldehyde, syringaldehyde] = 0.0265
5. O=Cc1ccc(CO)o1 [HMF, 5-hydroxymethylfurfural] = 0
6. COc1cc(C=O)ccc1O [Vanillin, vanillin] = 0.089
